Ref: patent US9708316B2

Target: HIS-TGFβR2 WT (Homo sapiens, UniProt P37173)
Sequence (P37173 23-567): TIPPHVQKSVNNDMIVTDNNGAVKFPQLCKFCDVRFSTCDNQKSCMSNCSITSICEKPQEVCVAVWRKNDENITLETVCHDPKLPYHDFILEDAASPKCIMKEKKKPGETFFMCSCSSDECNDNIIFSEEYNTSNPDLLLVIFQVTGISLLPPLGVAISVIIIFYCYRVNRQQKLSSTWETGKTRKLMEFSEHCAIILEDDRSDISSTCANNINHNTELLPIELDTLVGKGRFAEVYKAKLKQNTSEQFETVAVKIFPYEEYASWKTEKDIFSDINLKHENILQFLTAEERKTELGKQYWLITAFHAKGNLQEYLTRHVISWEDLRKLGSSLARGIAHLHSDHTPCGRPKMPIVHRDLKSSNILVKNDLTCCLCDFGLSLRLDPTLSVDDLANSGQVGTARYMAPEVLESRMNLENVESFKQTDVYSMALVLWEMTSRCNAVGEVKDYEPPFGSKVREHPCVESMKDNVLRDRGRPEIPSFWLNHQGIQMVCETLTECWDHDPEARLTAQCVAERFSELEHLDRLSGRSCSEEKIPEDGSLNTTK
Test: HTRF probe-displacement assay, HIS-TGFβR2 WT
Assay type: binding
quantity name: IC50 (µM)

Some compounds with known IC50 results, for comparison:
• CC(=O)Nc1cc(-c2[nH]c3cc(Cl)cnc3c2-c2csc(C)n2)ccn1 = 1.07
• CC(=O)Nc1cc(-c2[nH]c3cc(F)cnc3c2-c2cccc(Cl)n2)ccn1 = 0.11
• COCCCc1ccnc2c(-c3cccc(C(F)F)n3)c(-c3ccnc(NC(C)=O)c3)[nH]c12 = 3.84
• CNc1cc(-c2[nH]c3cc(Cl)cnc3c2-c2ccc(F)cn2)ccn1 = 4.05
• CC(=O)Nc1cc(-c2[nH]c3c(CN4CCN(C)CC4)ccnc3c2-c2cccc(C(F)F)n2)ccn1 = 8.47

1 = COc1ccc(-c2c(-c3ccnc(NC(C)=O)c3)[nH]c3cc(C)cnc23)cn1
2 = CC(=O)Nc1cc(-c2[nH]c3c(C)ccnc3c2-c2cccc(C(F)F)n2)ccn1
3 = CC(=O)Nc1cc(-c2[nH]c3c(C)ccnc3c2-c2ncc(C)s2)ccn1
4 = CC(=O)Nc1cc(-c2[nH]c3c(C(=O)NC(CO)CO)cc(Cl)nc3c2-c2cccnc2)ccn1
5 = COc1ccc(-c2c(-c3ccnc(NC(C)=O)c3)[nH]c3c(Cl)ccnc23)cn1
Exercise: hey, can you rank those compounds up there by IC50? biggest number first please Output spec: a listing of the labels in the requested order.
Key: 4, 2, 1, 3, 5
(4: 6.65 µM, 2: 3.77 µM, 1: 1.35 µM, 3: 0.594 µM, 5: 0.352 µM)

a = CC(=O)Nc1cc(-c2[nH]c3cc(F)cnc3c2-c2nc(C#N)cs2)ccn1
b = COc1cnc(-c2c(-c3ccnc(NC(C)=O)c3)[nH]c3cc(Cl)cnc23)s1
Exercise: Rank a against b by their IC50 values and give the higher one. Please identify the chosen entry by its label.
Key: b

###

Molecular target: HIS-TGFβR1 T204D (Homo sapiens, UniProt P36897, T204D)
Sequence (P36897 34-503 T204D): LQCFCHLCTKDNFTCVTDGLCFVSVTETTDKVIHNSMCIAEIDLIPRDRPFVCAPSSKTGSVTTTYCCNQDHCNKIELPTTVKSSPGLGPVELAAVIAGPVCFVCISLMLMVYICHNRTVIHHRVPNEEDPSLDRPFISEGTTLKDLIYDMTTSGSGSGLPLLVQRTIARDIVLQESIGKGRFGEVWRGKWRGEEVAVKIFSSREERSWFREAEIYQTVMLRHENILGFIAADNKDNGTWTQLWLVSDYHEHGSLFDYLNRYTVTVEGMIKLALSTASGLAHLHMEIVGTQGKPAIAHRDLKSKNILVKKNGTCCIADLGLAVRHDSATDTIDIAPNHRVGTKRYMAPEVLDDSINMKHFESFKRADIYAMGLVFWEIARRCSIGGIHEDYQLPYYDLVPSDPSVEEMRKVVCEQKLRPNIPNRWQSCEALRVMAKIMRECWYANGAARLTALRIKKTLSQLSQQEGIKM
Assay: HTRF probe-displacement assay, HIS-TGFβR1 T204D
Format: binding
Conditions: read-out: TGFβR1 (μM) IC50
quantity name: IC50 (µM)

// worked examples, IC50 included
- COc1ccc(-c2c(-c3ccnc(NC(C)=O)c3)[nH]c3cccnc23)nc1Cl [Example 192]: 0.11
- COc1ccc(-c2c(-c3ccnc(NC(=O)CN4CCN(CCO)CC4)c3)[nH]c3cccnc23)cn1 [Example 288]: 0.002
- CC(=O)Nc1cc(-c2[nH]c3c(CO)ccnc3c2-c2nc(C)cs2)ccn1 [Example 214]: 0.0014
- CC(=O)Nc1cc(-c2[nH]c3c(Cl)ccnc3c2-c2ccc(F)cn2)ccn1 [Example 61]: 0.005

A = CNc1cc(-c2[nH]c3cc(Cl)cnc3c2-c2ccc(F)cn2)ccn1 [Example 82]
B = CCC(OC(N)=O)c1ccnc2c(-c3ccc(OC)nc3)c(-c3ccnc(NC(C)=O)c3)[nH]c12 (centres unmarked) [Example 302]
C = CC(=O)Nc1cc(-c2[nH]c3cccnc3c2-c2nc(C(F)F)cs2)ccn1 [Example 200]
D = CC(=O)Nc1cc(-c2[nH]c3cccnc3c2-c2cn[nH]c2)ccn1 [Example 189]
Exercise: Rank by IC50 (largest to smallest). Labels, ranked as asked.
Key: D, A, B, C
